Here, each record is paired with measured RAMPO Score data.
# TARGET_OF_ASSAY: T1, His-tagged P3028 (human, also: His-tag, terminus and sequence not given here)
# T1 construct: in solution at 0.5 ug/mL over the peptide cards; found with anti-His-tag antibody and rabbit anti-mouse peroxidase (rampo); also called PGE73; not shown: His-tag
# T1 peptide: VFDEFKPLVEEPQNLIK
# ASSAY_PROCEDURE: PEPSCAN chip ELISA, His-P3028 in solution;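 further: score is the raw OD at 405 nm from peroxidase colour with ABTS, imaged by CCD camera before and after staining, with wells showing air bubbles set to zero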
No end group written: not given here.

Asked: Dear colleague, I am looking for the recorded RAMPO Score of the following binder: KKLDTFFVKLSLFYER [SEQ ID NO 514]
Given back: 270 rampo score

Asked: Dear colleague, I am looking for the recorded RAMPO Score of the following binder: KKLDTFFVKTSLFTER [SEQ ID NO 342]
Given back: 399 rampo score

Asked: Dear colleague, I am looking for the recorded RAMPO Score of the following binder: KNLDTFFVKLSLFTER [SEQ ID NO 402]
Given back: 432 rampo score

Asked: Dear colleague, I am looking for the recorded RAMPO Score of the following binder: KKLDTFFVKLGLFTER [SEQ ID NO 99]
Given back: 288 rampo score

Asked: Dear colleague, I am looking for the recorded RAMPO Score of the following binder: KKLDTFFVKLHLFTER [SEQ ID NO 345]
Given back: 535 rampo score

Asked: Dear colleague, I am looking for the recorded RAMPO Score of the following binder: KKLDTFFVKLSMFTER [SEQ ID NO 353]
Given back: 499 rampo score

---
Asked: Dear colleague, I am looking for the recorded RAMPO Score of the following binder: KKLDQFFVKLSLFTER [SEQ ID NO 6]
Given back: 535 rampo score

Asked: Dear colleague, I am looking for the recorded RAMPO Score of the following binder: KKLDTFFVKLWLFTER [SEQ ID NO 472]
Given back: 324 rampo score

Asked: Dear colleague, I am looking for the recorded RAMPO Score of the following binder: KKLDTFFVKRSLFTER [SEQ ID NO 340]
Given back: 439 rampo score

Asked: Dear colleague, I am looking for the recorded RAMPO Score of the following binder: KKLDTFIVKLSLFTER [SEQ ID NO 397]
Given back: 446 rampo score

Asked: Dear colleague, I am looking for the recorded RAMPO Score of the following binder: KKLDTFFVKLKLFTER [SEQ ID NO 473]
Given back: 323 rampo score

Asked: Dear colleague, I am looking for the recorded RAMPO Score of the following binder: KKLDTFFVKLSLFIER [SEQ ID NO 379]
Given back: 375 rampo score

Asked: Dear colleague, I am looking for the recorded RAMPO Score of the following binder: KKLDYFFVKLSLFTER [SEQ ID NO 312]
Given back: 425 rampo score

Asked: Dear colleague, I am looking for the recorded RAMPO Score of the following binder: KKLDTFQVKLSLFTER [SEQ ID NO 322]
Given back: 511 rampo score

Asked: Dear colleague, I am looking for the recorded RAMPO Score of the following binder: KKLDTFFVKLSRFTER [SEQ ID NO 356]
Given back: 483 rampo score
